- Tested on: K-562 leukemia
- experiment-summary: NCI-60 one-dose screen, 48 h (100 = growth as untreated, 0 = no growth, -100 = all killed)
- experimental-context: 10 µM unless noted
Compounds without any hit were thinned out: in the full panel of roughly 83,000, 20% have a hit.
Labelling field: enter T if recorded growth is less than 40%. Enter F if it equals or exceeds that cut-off.

Ask: Would you kindly verify if growth of COc1cc(C(=O)C(=O)c2cc(OC)c(O)c(OC)c2)cc(OC)c1O is strictly less than 40%?
Reply: F

Ask: Item: NC(=O)OCCn1cc(-c2nc(-c3c[nH]c4ncccc34)cs2)c2ccccc21
Reply: T

Ask: Cool, now CCCCCCC(CCCC)COC(=O)c1ccc(Cl)cc1 (stereo not drawn)
Reply: F

Ask: Cool, now CCN(CC)CCN(CCN(CC)CC)c1ccccc1
Reply: F

Ask: // query: Cc1cccc(NC(=O)CSc2nc3ccc([N+](=O)[O-])cc3[nH]2)c1
Reply: F

Ask: Same lookup for CC(=O)c1c(Nc2ccc(F)c(F)c2F)[nH]c2c(F)cc(F)cc2c1=O , please.
Reply: T

Ask: Let us now turn to COC1=CC(c2ccc[nH]2)=N/C1=C\c1[nH]c(C)c(CC(=O)OCc2ccccc2)c1C
Reply: T

Ask: Next molecule up: Cc1ccc(C(=O)c2ccc(CC(=O)N/N=C/c3ccc(O)cc3O)n2C)cc1
Reply: F

----------
- System: ACHN renal
- experiment-summary: NCI-60 one-dose screen, 48 h (100 = growth as untreated, 0 = no growth, -100 = all killed)
- experimental-context: 10 µM unless noted
The panel holds about 83,000 compounds, 20% with a hit somewhere; the sample as a whole holds those more often. Active and inactive are the calls of the source. The calls were made as follows: active = growth percent below 10; inactive = the rest.
So I've got a bunch of compounds here, and I need their growth values.

Ask: Missing value: growth, ACHN renal, entry COc1ccc(-c2cn(-c3ccc(Cl)cc3)c(SCC(=O)c3ccc([N+](=O)[O-])cc3)n2)cc1 . Fill in?
Reply: 81.5% (inactive)

Ask: Try CC(=O)Nc1c(Cl)cc(Cl)c2c1Cc1cc([N+](=O)[O-])ccc1-2 next.
Reply: 82.3% (inactive)

Ask: # iterate: COc1cc(/C=N/Nc2ccccc2F)cc(OC)c1OC
Reply: 81.3% (inactive)

Ask: How about O=[N+]([O-])/C(=C\c1ccco1)c1ccccc1Cl ?
Reply: 81.1% (inactive)

----------
- Tested on: T-47D breast
- experiment-summary: NCI-60 one-dose screen, 48 h (100 = growth as untreated, 0 = no growth, -100 = all killed)
- experimental-context: 10 µM unless noted
This is part of a sample that, as a whole, favours compounds with a hit. Of some 83,000 tested, about 20% had one in any assay. Activity calls are given as the source filed them. Rule for the calls: active = growth percent below 10; inactive = the rest.
quantity-measured: growth

Ask: Fill in the blank: the reported growth of Cc1ccccc1CNc1c2ccccc2nc2ccccc12 is ____.
Reply: 24.6% (inactive)

Ask: Then what about the molecule CCCCn1sc(=O)n(Cc2ccc(CNC(=O)OCc3ccc4c(Br)cc(Br)c(O)c4n3)cc2)c1=O ?
Reply: 69.9% (inactive)

Ask: Next: C=C1C(=O)O[C@H]2[C@H]1CC/C(COC(=O)c1cc3cc(F)ccc3[nH]1)=C\CC[C@@]1(C)O[C@@H]21
Reply: -51.8% (active)

Ask: Now this one: CCCCCCCCn1ccc2cc(NC(=O)Cn3cc(CN4CCCCCC4)nn3)ccc21
Reply: -47.4% (active)

Ask: Input Cn1cc(-c2nc(-c3c[nH]c4ccncc34)cs2)c2cc(Br)ccc21
Reply: -54.1% (active)

Ask: Then COc1cc2c(/C=C3\C(=O)Nc4ccccc43)c(C(=O)O)[nH]c2cc1C ?
Reply: 113% (inactive)

----------
- Tested on: SK-MEL-2 melanoma
- experiment-summary: NCI-60 one-dose screen, 48 h (100 = growth as untreated, 0 = no growth, -100 = all killed)
- experimental-context: 10 µM unless noted
About 83,000 compounds went through this panel and 20% of them were active in at least one assay; those are over-represented in the sample as a whole. The source made the active and inactive calls. Rule for the calls: active = growth percent below 10; inactive = the rest.
quantity-measured: growth

Ask: So what does the record say about growth for O=C(OC[C@@H]1CO1)c1cccc2c(=O)c3ccccc3[nH]c12 ?
Reply: -70.8% (active)

Ask: Thanks! And CCN1C(=O)N(CC)C2C1NN=c1s/c(=C\c3ccccc3Br)c(=O)n12 (stereo unspecified) ?
Reply: 51.1% (inactive)

Ask: Next up: CCOC(=O)C/C(=N\Nc1cc(=O)[nH]c2ccc(Cl)cc12)C(=O)OCC
Reply: 116% (inactive)

Ask: Next record, please: COc1cc(C(=O)/C=C/c2ccc(N3CCN(C)CC3)cc2)cc(OC)c1OC
Reply: 107% (inactive)

Ask: Next compound up: C/C(=N\Nc1nc(C)cs1)c1cc2ccccc2o1
Reply: 104% (inactive)

Ask: Also check Cc1ccc(/C=C/C(=O)c2ccc(NC(=O)CSc3nc4c([nH]3)c(=O)n(C)c(=O)n4C)cc2)c(C)c1
Reply: 91.9% (inactive)

Ask: Item: CCN1C(=O)N(CC)C2C1NN=c1s/c(=C\c3cc4ccccc4[nH]3)c(=O)n12 (stereo unspecified)
Reply: 23.1% (inactive)

Ask: Now consider CN(C)c1ccc(C(=NO)c2ccc(N(C)C)cc2)cc1 .
Reply: -23% (active)

Ask: Please give the result for COc1cc(C(=O)c2c(-c3ccccc3)oc3c(OC)cccc23)cc(OC)c1O too.
Reply: 62% (inactive)

Ask: What about this compound? O=C1/C(=C/c2cccc([N+](=O)[O-])c2)COc2ccc(O)cc21
Reply: 91.3% (inactive)

Ask: For CN(C)c1ccc(/C=C/C(=O)c2ccc(Nc3nc(Nc4ccc(F)cc4)nc(Nc4ccc(Cl)cc4)n3)cc2)cc1 then?
Reply: 52.6% (inactive)

----------
- Test system: EKVX NSCLC
- experiment-summary: NCI-60 one-dose screen, 48 h
- experimental-context: 10 µM unless noted
- Procedure: Growth inhibition of the EKVX human Non-Small Cell Lung tumor cell line is measured as a screen for anti-cancer activity. Cells are grown in 96 well plates and exposed to the test compound for 48 hours. Compounds are tested at a single concentration, which is 10^-5 M for most compounds. The reported endpoint is percent growth (GI% or GIPRCNT), where numbers from 0 - 100% represent growth inhibition, and numbers from -100% - 0 represent cell death. […]
The panel holds about 83,000 compounds, 20% with a hit somewhere; the sample as a whole holds those more often. The source made the active and inactive calls. The calls were made as follows: active = growth percent below 10; inactive = the rest.
Can you answer with just one of these options? T (active), F (inactive)

Ask: Answer briefly: the call reported for O=C1/C(=C/c2ccc(C(F)(F)F)cc2)COc2ccc(O)cc21 in this assay.
Reply: F

Ask: Now consider CN1CCN(c2ccc3c(c2)nc(NNC(=O)c2cnccn2)c2cccn23)CC1 and answer again.
Reply: F

Ask: And what about the compound C=C1C(=O)O[C@H]2[C@H]1CC/C(COC(=O)c1cc3cc(F)ccc3[nH]1)=C\CC[C@@]1(C)O[C@@H]21 ?
Reply: T

----------
- Test system: MDA-MB-435 melanoma
- experiment-summary: NCI-60 one-dose screen, 48 h
- experimental-context: 10 µM unless noted
About 83,000 compounds went through this panel and 20% of them were active in at least one assay; those are over-represented in the sample as a whole. Active and inactive are the calls of the source. The calls were made as follows: active = growth percent below 10; inactive = the rest.
Write down one outcome, taken from active, inactive

Ask: Dear all, I need the recorded test outcome for CN(C)c1ccc(C(=NO)c2ccc(N(C)C)cc2)cc1 , thank you.
Reply: active

Ask: And for C#CC#CC#CC#CC#CC#CC#CC#CCC1OCC(COC(=O)O[C@@H](C(=O)O[C@H]2C[C@@]3(O)[C@@H](OC(=O)c4ccccc4)[C@@H]4[C@]5(OC(C)=O)CO[C@@H]5C[C@H](O)[C@@]4(C)C(=O)[C@H](OC(C)=O)C(=C2C)C3(C)C)[C@@H](NC(=O)c2ccccc2)c2ccccc2)O1 (stereo partly specified) ?
Reply: active

Ask: Next molecule: COc1cc(/C=C2\C(=O)N(c3c(Cl)cccc3Cl)c3ccccc32)cc(OC)c1OCCCCCCn1c2ccccc2c(=O)c2ccccc21
Reply: inactive

Ask: Same for C=C(c1ccc(C(=O)O)cn1)c1cc2c(cc1C)C(C)(C)CCC2(C)C
Reply: inactive

Ask: Now this one: Nc1ccc([N+](=O)[O-])cc1N=C/C=C/c1ccccc1
Reply: active

Ask: Follow-up item: CCCCCCC(=O)Nc1ncc(Cc2ccc(C)cc2)s1
Reply: active

Ask: Another molecule: C=C1C(=O)O[C@H]2[C@H]1CC/C(CNC(=O)c1cc3ccccc3[nH]1)=C\CC[C@@]1(C)O[C@@H]21
Reply: active

Ask: What would you report for CC/C=C1/C(=O)C=C[C@@H]1C/C=C\CCCC(=O)OC ?
Reply: active

Ask: Another molecule to look at: Cc1cc2nc(-c3c(-c4ccc(F)cc4)nc4sccn34)[nH]c2cc1C
Reply: inactive

Ask: Another molecule to check: Cc1cscc(C)c1=S
Reply: inactive

Ask: Record: CN1CCN(c2ccc3c(c2)nc(NNC(=O)c2cnccn2)c2cccn23)CC1
Reply: inactive

Ask: One more molecule: CCn1c2ccc(O)cc2c2c(C)c3c[n+](C(C)C)ccc3c(C)c21
Reply: inactive

Ask: Same question, CN(Cc1cnc2nc(N)nc(N)c2n1)c1c(Cl)cc(C(=O)NC(CCC(=O)O)C(=O)O)cc1Cl (stereo unspecified) this time
Reply: inactive

Ask: Would you mind doing O=c1[nH]c(-c2ccc(Cl)cc2)cn1-c1ccc(-n2cc(-c3ccc(Cl)cc3)[nH]c2=O)cc1 as well?
Reply: inactive

Ask: // next record CCc1ccc(CCC(=O)Nc2ncc(Cc3ccc(Cl)cc3)s2)o1
Reply: active

Ask: Quick one: CCN(CC)CCCNCc1cc(-c2ccccc2)nc2cc(Cl)ccc12
Reply: active

Ask: Record: CCOC(=O)c1c(NC(=O)CSc2n[nH]c3nc4ccccc4n23)sc(CC)c1C
Reply: inactive

Ask: // next record CC1(C)CC[C@]2(C(=O)N3CCOCC3)CC[C@]3(C)C(=CC[C@@H]4[C@@]5(C)C/C(=C/c6ccncc6)C(=O)C(C)(C)[C@@H]5CC[C@]43C)[C@@H]2C1
Reply: active

Ask: Same for CC(=O)c1cc(-c2ccccc2N)n(-c2ccc3c(c2)OCO3)c1C
Reply: active

Ask: Moving on to the next molecule: CC(=O)N/C(=C1/OC(C(O)C(O)C(O)CO)CN1C)[P+](c1ccccc1)(c1ccccc1)c1ccccc1 (stereo unspecified)
Reply: inactive

Ask: Let us now turn to O=C(OC[C@@H]1CO1)c1cccc2c(=O)c3ccccc3[nH]c12
Reply: active

Ask: // repeat for CCN(CCO)CC(C)Nc1ccc([N+](=O)[O-])c2sc3ccccc3c(=O)c12 (stereo unspecified) and report
Reply: inactive

Ask: What about this molecule? NC(CSC(c1ccccc1)(c1ccccc1)c1ccc2c(c1)OCO2)C(=O)O (stereo unspecified)
Reply: active

Ask: Queued: O=C1CC2C=CCN2C=C1NC(=O)C1CCCCC1 (stereo unspecified)
Reply: inactive

Ask: Please do the same for O=C1NC(=Nc2ccc(O)cc2)S/C1=C\c1cccs1 as well.
Reply: active

Ask: Another: O=C1OCC2=C1C(c1cccc(F)c1)c1cc3c(cc1N2CCO)OCO3 (stereo unspecified)
Reply: active

Recorded values, source PubChem BioAssay (NCI).
